# system name: T1, Dimeric human CD48-mFc (human)
# T1 construct: the whole entry is the construct; also called hCD48-mFc
# T1 chain: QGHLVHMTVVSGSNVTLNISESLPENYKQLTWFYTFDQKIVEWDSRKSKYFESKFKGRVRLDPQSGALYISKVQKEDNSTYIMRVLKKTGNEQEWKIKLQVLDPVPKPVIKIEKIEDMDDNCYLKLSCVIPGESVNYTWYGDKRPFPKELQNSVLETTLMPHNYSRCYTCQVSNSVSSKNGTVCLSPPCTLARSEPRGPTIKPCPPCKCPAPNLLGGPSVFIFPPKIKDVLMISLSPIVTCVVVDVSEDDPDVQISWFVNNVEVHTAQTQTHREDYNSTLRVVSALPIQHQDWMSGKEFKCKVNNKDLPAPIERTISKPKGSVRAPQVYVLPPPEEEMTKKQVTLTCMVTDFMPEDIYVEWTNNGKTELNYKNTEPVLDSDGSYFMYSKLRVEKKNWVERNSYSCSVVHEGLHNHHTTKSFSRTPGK
# assay procedure: SPR (Biacore), antibody captured by anti-Fc, CD48 in solution, 37 C
measurement name: T½ (h)
Express your answer in h, writing the number without its unit.

Consider the reported T½ for these binders:
| binder | measurement name | measured number |
| --- | --- | --- |
| H4H1778P (antibody, human IgG4, V domains shown, Human IgG4 Fc (H4H)) VH: QVQLVESGGGVVQPGRSLRLSCAASGFTFSNYGMHWVRQAPGKGLEWVAVIWYDESSKYYTDSVKGRFTISRDNSQNTLYLQMTSLRAEDTAVYYCARDRWTYSHYFEYWGQGTLVTVSS VL: DIQMTQSPSSVSASVGDRVTITCRASQGISSWVAWYQQKPGKAPKLLIYAASSLQSGVPSRFSGSGSGTDFTLTISSLQPEDFATYYCQQANSFPRTFGQGTKVEIK | T½ | 5.45 |
| H2M1811N (antibody, mouse IgG2, V domains shown, Human variable domains, mouse IgG2 Fc (H2M)) VH: QVQLVQSGAEAREPGASVRVSCKASGYTFTDYFIHWVRQAPGQGLEWMGWINPNSGATNFAQKFQGRVTMTRDTSLITAYMDLSRLKSDDAAVFYCARDVDGSGWYLDFWGQGTLVTVSS VL: EIVLTQSPATLSLSPGERATLSCRASQSVSIYLAWYQQKPGQAPRLLIYDASNRATGIPARFSGSGSGTDFTLTISRLEPEDFAVYYCQQRSDWPPSITFGQGTRLEIK | T½ | 0.75 |

Return the recorded T½ value; entry: H4H1713N (antibody, V domains shown, Human IgG4 Fc (H4H)) VH: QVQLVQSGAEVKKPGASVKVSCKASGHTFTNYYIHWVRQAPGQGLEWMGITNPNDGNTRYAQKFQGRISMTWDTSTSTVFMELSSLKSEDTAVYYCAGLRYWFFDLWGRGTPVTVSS VL: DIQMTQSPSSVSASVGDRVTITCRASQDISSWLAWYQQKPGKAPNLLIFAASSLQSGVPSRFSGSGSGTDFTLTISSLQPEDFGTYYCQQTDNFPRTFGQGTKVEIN 4.25
